- Tested on: Mus musculus
- assay.details: Percent decrease in glucose of db/db mouse was measured at 100 mg/kg/day dosage.
- Type: functional
Measured Decrease values are reported for all entries that follow.
quantity.kind: Decrease (%)

O=C1NC(=O)C(CC#Cc2ccc(C(F)(F)F)cc2)(S(=O)(=O)c2ccc(F)cc2)S1 (stereo not given) : 52
O=C1NC(=O)C(CC#Cc2ccc(F)cc2)(S(=O)(=O)c2ccccc2)S1 (stereo not given) : 58
O=C1NC(=O)C(CC#Cc2ccc(Cl)cc2)(S(=O)(=O)c2ccc(Cl)cc2)S1 (stereo not given) : 70
Cc1ccc(S(=O)(=O)C(CC#Cc2ccc(Cl)cc2)C(=O)O)cc1 (stereo not given) : 30
O=C1NC(=O)C(CC#Cc2ccc(Cl)cc2)(S(=O)(=O)c2ccc3ccccc3c2)S1 (stereo not given) : 20
O=C1NC(=O)C(CC#Cc2ccc(OC(F)(F)F)cc2)(S(=O)(=O)c2ccc(F)cc2)S1 (stereo not given) : 56
O=C1NC(=O)C(CC#Cc2ccc(Cl)cc2)(Sc2ccc(Cl)cc2)S1 (stereo not given) : 24
Cc1ccc(S(=O)(=O)C2(CC#Cc3ccc(C(F)(F)F)cc3)SC(=O)NC2=O)cc1 (stereo not given) : 36
O=C1NC(=O)C(CC#Cc2ccc(F)cc2)(S(=O)(=O)c2ccccn2)S1 (stereo not given) : 67
O=C1NC(=O)C(CC#Cc2ccccc2)(S(=O)(=O)c2ccc(F)cc2)S1 (stereo not given) : 26
O=C1NC(=O)C(CC#Cc2ccc(Cl)cc2)(S(=O)(=O)c2ccccc2)S1 (stereo not given) : 52
COc1ccc(S(=O)(=O)C2(CC#Cc3ccc(Cl)cc3)SC(=O)NC2=O)cc1 (stereo not given) : 45
Cc1ccc(SC2(CC#Cc3ccc(Cl)cc3)SC(=O)NC2=O)cc1 (stereo not given) : 27
